- protocol description: in vitro
- experimental context: African green monkey

| compound | CC50 at 3 days |
| --- | --- |
| CC(C)OC(=O)C(C)(C)Oc1ccc(C(=O)c2ccc(Cl)cc2)cc1 [Fenofibrate] | > 100 µM |

###

- Tested on: SARS-CoV-2
- protocol description: microbe, parasite or virus in culture
- Assay type: cell-based
- experimental context: Severe acute respiratory syndrome coronavirus 2, Vero C1008, 72 h, Vero E6, cytopathic effect 3 days after infection, repeated experiments; read-out: IC50 (Mean +/- SD)
Structures can show the parent of a compound that is named as a salt.
Reported IC50 values for the following molecules.

| molecule | censoring qualifier | IC50 (µM) |
| --- | --- | --- |
| CCN(CCO)CCCC(C)Nc1ccnc2cc(Cl)ccc12 (stereo not drawn) [Hydroxychloroquine] | = | 9.3 |
| Cc1c(O)cccc1C(=O)N[C@@H](CSc1ccccc1)[C@H](O)CN1C[C@H]2CCCC[C@H]2C[C@H]1C(=O)NC(C)(C)C [Nelfinavir mesylate hydrate] | < | 10 |
| CCC(C)n1ncn(-c2ccc(N3CCN(c4ccc(OCC5COC(Cn6cncn6)(c6ccc(Cl)cc6Cl)O5)cc4)CC3)cc2)c1=O (stereo not drawn) [Itraconazole] | = | 79.4 |
